Consider the following binders and their measured OD450 (ref. 630 nm) readings.
- study system: DN-III-NS antigen (produced by Fapon Biotech InC.) (dengue virus)
- experiment: capture ELISA (anti-mouse IgG / antibody / antigen / HRP-mAb), antibody sample Original
recorded endpoint: OD450 (ref. 630 nm) (OD)

* Mutation 4 (antibody, V domains shown) VH: EVQLQQSGTELVRPGALVKLSCKASGFNIKRYYVHWVKQRPRQGLEWIGWIDPRNGKTLYDPKVQDKASITSDTSTNTAYLQLRSLTSEDTAVYYCVTAYVRFVYWGQGTLVTVSA VL: QIVLTQSPAIMSAFPGERVTMTCSASSSVIYMYWHQQKPGSSPRLLIYWTSNVASGYPVRFSGSGSGTSYSLTISRDEAMDAATYYCQQVSSTPRTFGGGTKLEIKR | 0.892
* Mutation 3 (antibody, V domains shown) VH: EVQLQQSGTELVRPGALVKLSCKASGFNIKLYYVHWVKQRPRQGLEWIGWIDPKNGKTLYDPKCQDKASITSDTSTNTAYLQLRSLTSEDTAVYYCVTAYVRFVYWGQGTLVTVSA VL: QIVLTQSPAIMSAFPGERVTMTCSASSSVVYMYWHQQKPGSSPRLLIYCTSNVASGLPVRFSGSGSGTSYSLTISRDEAMDAATYYCQQRSSTPRTFGGGTKLEIKR | 1.05
* Mutation 1 (antibody, V domains shown) VH: EVQLQQSGTELVRPGALVKLSCKASGFNIKDYYVHWVKQRPRQGLEWIGWIDPENGKTLYDPKFQDKASITSDTSTNTAYLQLRSLTSEDTAVYYCVTAYVRFVYWGQGTLVTVSA VL: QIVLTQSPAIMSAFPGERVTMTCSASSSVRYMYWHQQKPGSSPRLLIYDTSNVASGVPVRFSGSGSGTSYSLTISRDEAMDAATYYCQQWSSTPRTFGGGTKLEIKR | 2.37
* anti-dengue virus NS1 3D5 monoclonal antibody (recombinant, expressed in CHO cells) (antibody, mouse IgG1, kappa, V domains shown) VH: EVQLQQSGTELVRPGALVKLSCKASGFNIKDYYVHWVKQRPRQGLEWIGWIDPNNGKTIYDPKFQDKASITSDTSTNTAYLQLRSLTSEDTAVYYCVTAYVRFVYWGQGTLVTVSA VL: QIVLTQSPAIMSAFPGERVTMTCSASTSVKYMYWHQQKPGSSPRLLIYETSNIASGVPVRFSGSGSGTSYSLTISRDEAMDAATYYCQQWSSYPRTFGGGTKLEIKR | 2.34
